Source of measurements: patent US20240287046A1

# System: ASPC-1 tumor-bearing mice
# METHOD_SUMMARY: Biodistribution of radionuclide labeled complexes in ASPC-1 tumor-bearing mice
# Format: in vivo, BALB/c nude mice
# TEST_SETTINGS: Tumor, 4 h
RESULT_TYPE: % ID/g (4 h) Tumor (% ID/g)

COMPOUND | MEASURED_NUMBER
COc1cccc(OC)c1-c1cc(C(=O)NC2(C(=O)O)C3CC4CC(C3)CC2C4)nn1-c1ccc(OCCCN(C)CCCN(C)C(=O)CN2CCN(CC(=O)[O-])CCN(CC(=O)[O-])CCN(CC(=O)[O-])CC2)cc1C(C)C.[177Lu+3] (stereo not drawn) [^177Lu-I-7] | 19.97

P. COc1cccc(OC)c1-c1cc(C(=O)NC2(C(=O)O)C3CC4CC(C3)CC2C4)nn1-c1ccc(N(C)CCCN(C)CCCN(C)C(=O)CN2CCN(CC(=O)[O-])CCN(CC(=O)[O-])CCN(CC(=O)[O-])CC2)cc1C(C)C.[177Lu+3] (stereo not drawn) [^177Lu-I-1]
Q. COc1cccc(OC)c1-c1cc(C(=O)NC2(C(=O)O)C3CC4CC(C3)CC2C4)nn1-c1ccc(SCCCN(C)CCCN(C)C(=O)CN2CCN(CC(=O)[O-])CCN(CC(=O)[O-])CCN(CC(=O)[O-])CC2)cc1C(C)C.[177Lu+3] (stereo not drawn) [^177Lu-I-8]
Prompt: Lower value of % ID/g (4 h) Tumor belongs to which: P or Q ? Respond with the label that goes with your answer.
Response: P

====

# Test system: ASPC-1 tumor-bearing mice
# METHOD_SUMMARY: Biodistribution of radionuclide labeled complexes in ASPC-1 tumor-bearing mice
# Assay type: in vivo, BALB/c nude mice
# TEST_SETTINGS: Heart, 1 h
RESULT_TYPE: % ID/g (1 h) Heart (% ID/g)

Example results:
MOLECULE | RESULT_TYPE | OUTPUT_UNIT | MEASURED_NUMBER
COc1cccc(OC)c1-c1cc(C(=O)NC2(C(=O)O)C3CC4CC(C3)CC2C4)nn1-c1ccc(C(=O)N(C)CCCN(C)CCCN(C)C(=O)CN2CCN(CC(=O)[O-])CCN(CC(=O)[O-])CCN(CC(=O)[O-])CC2)cc1C(C)C.[177Lu+3] (stereo not shown) [^177Lu-C-2, reference compound] | % ID/g (1 h) Heart | % ID/g | 4.83
COc1cccc(OC)c1-c1cc(C(=O)NC2(C(=O)O)C3CC4CC(C3)CC2C4)nn1-c1ccc(C(=O)N(CCCNC(=O)CN2CCN(CC(=O)[O-])CCN(CC(=O)[O-])CCN(CC(=O)[O-])CC2)CCCN(C)C)cc1C(C)C.[177Lu+3] (stereo not shown) [^177Lu-C-5, reference compound] | % ID/g (1 h) Heart | % ID/g | 1.46

a. COc1cccc(OC)c1-c1cc(C(=O)NC2(C(=O)O)C3CC4CC(C3)CC2C4)nn1-c1ccc(N(CCCN(C)C)C(=O)COCCOCCNC(=O)CN2CCN(CC(=O)[O-])CCN(CC(=O)[O-])CCN(CC(=O)[O-])CC2)cc1C(C)C.[177Lu+3] (stereo not shown) [^177Lu-I-6]
b. COc1cccc(OC)c1-c1cc(C(=O)NC2(C(=O)O)C3CC4CC(C3)CC2C4)nn1-c1ccc(OCCCN(C)CCCN(C)C(=O)CN2CCN(CC(=O)[O-])CCN(CC(=O)[O-])CCN(CC(=O)[O-])CC2)cc1C(C)C.[177Lu+3] (stereo not shown) [^177Lu-I-7]
Prompt: Lower value of % ID/g (1 h) Heart belongs to which: a or b ? Respond with the label that goes with your answer.
Response: a
(a: 0.22 % ID/g, b: 3.47 % ID/g)

====

# System: ASPC-1 tumor-bearing mice
# METHOD_SUMMARY: Biodistribution of radionuclide labeled complexes in ASPC-1 tumor-bearing mice
# Type: in vivo, BALB/c nude mice
# TEST_SETTINGS: Blood, 24 h
RESULT_TYPE: % ID/g (24 h) Blood (% ID/g)

Example results:
COMPOUND | TARGET_OR_SYSTEM | % ID/g (24 h) Blood (% ID/g)
COc1cccc(OC)c1-c1cc(C(=O)NC2(C(=O)O)C3CC4CC(C3)CC2C4)nn1-c1ccc(NCCOCCOCCNC(=O)CN2CCN(CC(=O)[O-])CCN(CC(=O)[O-])CCN(CC(=O)[O-])CC2)cc1C(C)C.[177Lu+3] (stereo not shown) [^177Lu-I-10] | ASPC-1 tumor-bearing mice | 0.04
COc1cccc(OC)c1-c1cc(C(=O)NC2(C(=O)O)C3CC4CC(C3)CC2C4)nn1-c1ccc(N(C)CCCN(C)CCCN(C)C(=O)CN2CCN(CC(=O)[O-])CCN(CC(=O)[O-])CCN(CC(=O)[O-])CC2)cc1C(C)C.[177Lu+3] (stereo not shown) [^177Lu-I-1] | ASPC-1 tumor-bearing mice | 0.06
COc1cccc(OC)c1-c1cc(C(=O)NC2(C(=O)O)C3CC4CC(C3)CC2C4)nn1-c1ccc(OCCCN(C)CCCN(C)C(=O)CN2CCN(CC(=O)[O-])CCN(CC(=O)[O-])CCN(CC(=O)[O-])CC2)cc1C(C)C.[177Lu+3] (stereo not shown) [^177Lu-I-7] | ASPC-1 tumor-bearing mice | 0.07

1. COc1cccc(OC)c1-c1cc(C(=O)NC2(C(=O)O)C3CC4CC(C3)CC2C4)nn1-c1ccc(NC(=O)CCCN(C)CCCN(C)C(=O)CN2CCN(CC(=O)[O-])CCN(CC(=O)[O-])CCN(CC(=O)[O-])CC2)cc1C(C)C.[177Lu+3] (stereo not shown) [^177Lu-I-5]
2. COc1cccc(OC)c1-c1cc(C(=O)NC2(C(=O)O)C3CC4CC(C3)CC2C4)nn1-c1ccc(SCCCN(C)CCCN(C)C(=O)CN2CCN(CC(=O)[O-])CCN(CC(=O)[O-])CCN(CC(=O)[O-])CC2)cc1C(C)C.[177Lu+3] (stereo not shown) [^177Lu-I-8]
Prompt: Lower value of % ID/g (24 h) Blood belongs to which: 1 or 2 ? Respond with the label that goes with your answer.
Response: 1
(1: 0.09 % ID/g, 2: 0.23 % ID/g)

====

# TARGET_OR_SYSTEM: human NTSR-1 (Homo sapiens (Human), UniProt P30989)
# Sequence (P30989 whole entry): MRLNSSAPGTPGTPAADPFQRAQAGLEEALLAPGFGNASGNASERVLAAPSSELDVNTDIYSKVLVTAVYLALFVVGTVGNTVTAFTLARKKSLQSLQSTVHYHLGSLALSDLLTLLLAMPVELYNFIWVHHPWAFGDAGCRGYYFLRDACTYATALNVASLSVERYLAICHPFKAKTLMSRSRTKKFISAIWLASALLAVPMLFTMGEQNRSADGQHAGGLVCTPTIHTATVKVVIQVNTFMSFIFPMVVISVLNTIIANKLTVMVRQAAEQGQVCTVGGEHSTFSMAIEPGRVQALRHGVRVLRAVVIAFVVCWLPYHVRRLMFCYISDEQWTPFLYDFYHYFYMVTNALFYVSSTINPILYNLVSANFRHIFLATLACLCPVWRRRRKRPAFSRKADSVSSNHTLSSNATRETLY
# METHOD_SUMMARY: radioligand competitive binding assay using ^177Lu labeled C-1 as reference radioligand
# TEST_SETTINGS: Nonlin fit, single assay, HT-29 cells; read-out: IC50 (nM) Mean
RESULT_TYPE: IC50 (nM)

Example results:
COMPOUND | TARGET_OR_SYSTEM | RESULT_TYPE | MEASURED_NUMBER
COc1cccc(OC)c1-c1cc(C(=O)NC2(C(=O)O)C3CC4CC(C3)CC2C4)nn1-c1ccc(N(C)CCCN(C)CCCN(C)C(=O)CN2CCN(CC(=O)O)CCN(CC(=O)O)CCN(CC(=O)O)CC2)cc1C(C)C (stereo not shown) | human NTSR-1 (Homo sapiens (Human), UniProt P30989) | IC50 | 0.465
CC(=O)N[C@@H](CCCCNC(=O)CN1CCN(CC(=O)O)CCN(CC(=O)O)CCN(CC(=O)O)CC1)C(=O)N1CCC[C@H]1C(=O)N(C)[C@@H](CCCNC(=N)N)C(=O)N[C@@H](CCCNC(=N)N)C(=O)N1CCC[C@H]1C(=O)N[C@@H](Cc1ccc(O)cc1)C(=O)N[C@H](C(=O)N[C@@H](CC(C)C)C(=O)O)C(C)(C)C [Compound C-1, reference compound] | human NTSR-1 (Homo sapiens (Human), UniProt P30989) | IC50 | 40.3

1. COc1cccc(OC)c1-c1cc(C(=O)NC2(C(=O)O)C3CC4CC(C3)CC2C4)nn1-c1ccc(NCCCN(C)CCCNC(=O)CN2CCN(CC(=O)O)CCN(CC(=O)O)CCN(CC(=O)O)CC2)cc1C(C)C (stereo not shown)
2. COc1cccc(OC)c1-c1cc(C(=O)NC2(C(=O)O)C3CC4CC(C3)CC2C4)nn1-c1ccc(C(=O)N(C)CCCN(C)C)cc1C(C)C (stereo not shown) [Compound C-3, reference compound]
Prompt: Lower value of IC50 belongs to which: 1 or 2 ? Respond with the label that goes with your answer.
Response: 1
(1: 0.559 nM, 2: 2.05 nM)

====

# System: ASPC-1 tumor-bearing mice
# METHOD_SUMMARY: Biodistribution of radionuclide labeled complexes in ASPC-1 tumor-bearing mice
# Format: in vivo, BALB/c nude mice
# TEST_SETTINGS: Muscle, 24 h
RESULT_TYPE: % ID/g (24 h) Muscle (% ID/g)

1. COc1cccc(OC)c1-c1cc(C(=O)NC2(C(=O)O)C3CC4CC(C3)CC2C4)nn1-c1ccc(OCCCN(C)CCCN(C)C(=O)CN2CCN(CC(=O)[O-])CCN(CC(=O)[O-])CCN(CC(=O)[O-])CC2)cc1C(C)C.[177Lu+3] (stereo not shown) [^177Lu-I-7]
2. COc1cccc(OC)c1-c1cc(C(=O)NC2(C(=O)O)C3CC4CC(C3)CC2C4)nn1-c1ccc(N(C)CCCN(C)CCCN(C)C(=O)CN2CCN(CC(=O)[O-])CCN(CC(=O)[O-])CCN(CC(=O)[O-])CC2)cc1C(C)C.[177Lu+3] (stereo not shown) [^177Lu-I-1]
Prompt: Lower value of % ID/g (24 h) Muscle belongs to which: 1 or 2 ? Respond with the label that goes with your answer.
Response: 2
(2: 0.13 % ID/g, 1: 0.34 % ID/g)

A. COc1cccc(OC)c1-c1cc(C(=O)NC2(C(=O)O)C3CC4CC(C3)CC2C4)nn1-c1ccc(SCCCN(C)CCCN(C)C(=O)CN2CCN(CC(=O)[O-])CCN(CC(=O)[O-])CCN(CC(=O)[O-])CC2)cc1C(C)C.[177Lu+3] (stereo not shown) [^177Lu-I-8]
B. COc1cccc(OC)c1-c1cc(C(=O)NC2(C(=O)O)C3CC4CC(C3)CC2C4)nn1-c1ccc(NC(=O)CCCN(C)CCCN(C)C(=O)CN2CCN(CC(=O)[O-])CCN(CC(=O)[O-])CCN(CC(=O)[O-])CC2)cc1C(C)C.[177Lu+3] (stereo not shown) [^177Lu-I-5]
Prompt: Lower value of % ID/g (24 h) Muscle belongs to which: A or B ? Respond with the label that goes with your answer.
Response: B
(B: 0.17 % ID/g, A: 0.34 % ID/g)
